Biological target: KiSS-1 receptor (Homo sapiens)
Assay: Human kisspeptin (KISS1R) small molecule agonists, calcium flux assay in KISS1R-HEK293 cells (AID 1920064)
Details: KISS1R-HEK293, calcium flux fluorescence, agonist; series mostly up to 76.8 µM
The source made the active and inactive calls. Calls come from the whole dose curve; as a rule, active = well fitted activation curve with a large enough effect in the repeat runs; inconclusive = weak or mixed curves; inactive = flat fitted curve, though single readings scatter.
READOUT TYPE: outcome

For orientation, consider the following solved cases.
>>> test_value("NC(=S)NNC(N)=S")
"inactive"
>>> test_value("c1cc(-c2ccncc2)ccn1")
"inactive"
>>> test_value("O=C(O)CCC(=O)O")
"inactive"
>>> test_value("O=C(O)c1cccnc1")
"inactive"
>>> test_value("CC(=O)C(C)C")
"inactive"

Q: Request the reported outcome associated with NC(=O)OCC(COC(N)=O)c1ccccc1
A: inactive

Q: Request the reported outcome associated with Cc1ccc(C)c(O)c1C
A: inactive

Q: Request the reported outcome associated with Cc1cc(=O)n(-c2ccccc2)n1C
A: inactive

Q: Request the reported outcome associated with CCCCCC(N)=O
A: inactive

Q: Request the reported outcome associated with CC(O)CC(C)(C)O (configuration not stated)
A: inactive

Q: Request the reported outcome associated with CCOCC(=O)O
A: inactive

###

Test: Nuclear factor erythroid 2-related factor 2/antioxidant responsive element (Nrf2/ARE) small molecule agonists: qHTS cell viability counter screen in human keratinocytes (AID 1919968); note: nearly all actives have a fitted effect of over 55% in size
Settings: KeratinoSens HaCaT ARE cells viability, CellTiter-Fluor, 24 h; series mostly up to 92.4 µM
Results filed as inconclusive are left out. Active and inactive are the calls of the source. Calls follow the shape of the dose curve; as a rule, active = well fitted cell-killing curve with a large enough effect in the repeat runs; inconclusive = weak or mixed curves, or effect the other way; inactive = flat fitted curve, though single readings scatter.
The reply should name one outcome from active, inactive

Recorded results for 2 compounds are shown here.
>>> qualitative_label("CCCOCC(C)O (stereo not drawn)")
"inactive"
>>> qualitative_label("CCCN(CCC)S(=O)(=O)c1ccc(C(=O)O)cc1")
"inactive"

Q: Could you check what this test reported for C[N+](C)(C)CCCCCC[N+](C)(C)C ?
A: inactive

Q: Could you check what this test reported for CN1C(C(=O)Nc2ccccn2)=C(O)c2ccccc2S1(=O)=O ?
A: inactive

Q: Could you check what this test reported for Cc1[nH]c(=O)c(C#N)cc1-c1ccncc1 ?
A: inactive

###

Target: 5-hydroxytryptamine receptor 2A (Homo sapiens)
Assay: 5-hydroxytryptamine receptor 2A (HTR2A) small molecule antagonists, cell-based qHTS assay (AID 1963586); note: nearly all actives have a fitted effect of over 45% in size
Conditions: HTR2A-CHO cells, DOI-induced calcium flux, fluorescence; series mostly up to 61.5 µM
Records with an inconclusive call do not appear. Activity calls are given as the source filed them. The call rests on the fitted dose curve.
The reply should name one outcome from T = active, F = inactive

Q: Could you check what this test reported for COc1ccc(NC(C)=O)cc1N ?
A: F

Q: Could you check what this test reported for C=C[Si](OCCOC)(OCCOC)OCCOC ?
A: F

Q: Could you check what this test reported for NC(N)=NC(N)=NCCc1ccccc1 ?
A: F

###

Experiment: Nuclear factor erythroid 2-related factor 2/antioxidant responsive element (Nrf2/ARE) small molecule agonists: qHTS cell viability counter screen in human keratinocytes (AID 1919968); note: nearly all actives have a fitted effect of over 55% in size
Settings: KeratinoSens HaCaT ARE cells viability, CellTiter-Fluor, 24 h; series mostly up to 92.4 µM
Inconclusive results are not listed. The source made the active and inactive calls. The call rests on the fitted dose curve; in most records, active means well fitted cell-killing curve with a large enough effect in the repeat runs; inconclusive means weak or mixed curves, or effect the other way; inactive means flat fitted curve, though single readings scatter.
READOUT TYPE: outcome

For orientation, consider the following solved cases.
>>> test_value("C=C(C#N)C(=O)OCC")
"inactive"
>>> test_value("CCOC(=O)CC(=O)OCC")
"inactive"
>>> test_value("NS(=O)(=O)c1cc2c(cc1Cl)NC=NS2(=O)=O")
"inactive"
>>> test_value("C[C@](N)(Cc1ccc(O)c(O)c1)C(=O)O")
"inactive"
>>> test_value("CC(=O)OCC(=O)[C@@]12N=C(C)O[C@@H]1C[C@H]1[C@@H]3CCC4=CC(=O)C=C[C@]4(C)[C@H]3[C@@H](O)C[C@@]12C")
"inactive"
>>> test_value("O=C1CCCCCCCCCCCN1")
"inactive"

Q: Request the reported outcome associated with COc1c(Cl)c(Cl)c(Cl)c(Cl)c1Cl
A: inactive

Q: Request the reported outcome associated with O=C1O[C@H]([C@@H](O)CO)C(O)=C1O
A: inactive

Q: Request the reported outcome associated with COc1ccc([N+](=O)[O-])cc1N
A: inactive

Q: Request the reported outcome associated with CCCCCC1C(=O)CCC1CC(=O)OC (configuration not stated)
A: inactive

Q: Request the reported outcome associated with CC1=NN(c2ccccc2)C(=O)C1
A: inactive

Q: Request the reported outcome associated with Cc1ccc(C)c(OCCCC(C)(C)C(=O)O)c1
A: inactive

Q: Request the reported outcome associated with Cc1ccc(S(=O)(=O)NCl)cc1
A: inactive

Q: Request the reported outcome associated with CCN(CC)C(=O)c1cccc(C)c1
A: inactive

Q: Request the reported outcome associated with C=CCNC(N)=S
A: inactive

Q: Request the reported outcome associated with O=C(OCc1ccccc1)c1ccc(O)cc1
A: inactive

Q: Request the reported outcome associated with Cc1cc(CC(=O)O)n(C)c1C(=O)c1ccc(Cl)cc1
A: inactive

Q: Request the reported outcome associated with Cc1cccc2n[nH]nc12
A: inactive

Q: Request the reported outcome associated with CC(C)=CCC/C(C)=C/CO
A: inactive

Q: Request the reported outcome associated with COC(=O)c1ccc(O)cc1
A: inactive

Q: Request the reported outcome associated with C=C(C)C1CC=C(C)C(OC(C)=O)C1 (configuration not stated)
A: inactive

Q: Request the reported outcome associated with OC[C@@H](O)[C@@H](O)[C@H](O)[C@@H](O)CO
A: inactive

Q: Request the reported outcome associated with O=C(c1ccccc1)c1ccc(O)c(O)c1O
A: inactive

Q: Request the reported outcome associated with O=C(/C=C/C=C/c1ccc2c(c1)OCO2)N1CCCCC1
A: inactive

Values were extracted from PubChem BioAssay (Tox21).
